Tested on: Rattus norvegicus
Experiment: Difference in systolic blood pressure of SH rats observed prior to the first application and 2 hr after the fifth application at the oral dose of 25 mg/kg was expressed as Delta BP
Type: functional, Artery
recorded-metric: Delta blood pressure

COc1cc2c(cc1OC)-c1cc(Nc3ccc(C)cc3C)nc(=O)n1CC2; -41 mmHg
COc1cc2c(cc1OC)-c1cc(N(C)c3c(F)cccc3F)nc(=O)n1CC2; 0 mmHg
COc1cc2c(cc1OC)-c1cc(Nc3ccc(Cl)cc3Cl)nc(=O)n1CC2; 0 mmHg

**Q:** Given the molecule CCc1cccc(C(C)CC)c1N=c1cc2n(c(=O)n1C)CCc1cc(OC)c(OC)cc1-2.Cl (configuration not stated) , what is its reported Delta blood pressure?
**A:** -20 mmHg

**Q:** Likewise for CCOc1ccccc1Nc1cc2n(c(=O)n1)CCc1cc(OC)c(OC)cc1-2.Cl ?
**A:** -27 mmHg
